The values you see were collected from patent US11845751B2.

biological target: A2AR (hADORA2A-HEK293 cells) (Homo sapiens, UniProt P29274); construct: expressed in transfected cells; host or cells: HEK293 (hADORA2A-HEK293); assay: functional cAMP production assay: NECA stimulation of cAMP production and its inhibition by A2AR antagonists; format: cell-based; conditions: A2AR-expressing HEK293 cells (hADORA2A-HEK293); NECA at EC80; TR-FRET cAMP readout; read-out: A2AR Potency (IC50, inhibition of NECA-stimulated cAMP production)
Sequence (P29274 whole entry): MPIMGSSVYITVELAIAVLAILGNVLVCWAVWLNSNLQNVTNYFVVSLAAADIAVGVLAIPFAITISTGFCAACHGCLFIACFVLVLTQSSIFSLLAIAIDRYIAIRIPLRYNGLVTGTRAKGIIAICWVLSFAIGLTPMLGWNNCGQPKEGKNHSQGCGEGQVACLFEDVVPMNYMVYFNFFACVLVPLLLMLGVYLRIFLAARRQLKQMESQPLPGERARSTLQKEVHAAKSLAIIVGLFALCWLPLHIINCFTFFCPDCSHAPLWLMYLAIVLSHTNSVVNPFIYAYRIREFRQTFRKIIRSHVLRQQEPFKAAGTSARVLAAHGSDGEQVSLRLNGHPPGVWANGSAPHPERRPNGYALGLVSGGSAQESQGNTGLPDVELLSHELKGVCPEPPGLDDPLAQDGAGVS
measure: IC50

>>> print(df.to_string())
                               smiles_record  measurement
 0   Nc1nc(NCCc2c[nH]cn2)nc2nc(-c3ccco3)nn12       129 nM
 1  Nc1nc(NCCc2ccc(OCCOCCF)cc2)nc2nc(-c3ccco3)nn12      10.1 nM
 2  CN(C)CCCOc1ccc(CCNc2cc(N)n3nc(-c4ccco4)nc3c2)cc1        15 nM
 3  COCCOCCOCCOc1ccc(CCNc2nc(N)n3nc(-c4ccco4)nc3n2)cc1      21.5 nM
 4  Nc1nc(NCCc2ccc(OCCCN3CCCC3)cc2)nc2nc(-c3ccco3)nn12        29 nM
 5  COCCOCCOCCOCCOc1ccc(CCNc2nc(N)n3nc(-c4ccco4)nc3n2)cc1        19 nM
 6  Nc1nc(NCCc2ccc(OCC(F)(F)F)cc2)nc2nc(-c3ccco3)nn12      8.96 nM
 7  COCCOCCOCCOCCOCCOCCOCCOCCOc1ccc(CCNc2nc(N)n3nc(-c4ccco4)nc3n2)cc1        55 nM
 8  CC(C)(C)C(=O)Nc1ccc(CCNc2nc(N)n3nc(-c4ccco4)nc3n2)cc1      10.8 nM
 9  CN1CCN(CC(=O)Nc2ccc(CCNc3nc(N)n4nc(-c5ccco5)nc4n3)cc2)CC1      40.7 nM
10  Nc1nc(NCCc2ccc(OCCN3CCCC3)cc2)nc2nc(-c3ccco3)nn12        24 nM
11  Nc1nc(NCCc2ccc(OCCF)cc2)nc2nc(-c3ccco3)nn12      8.09 nM
12  Nc1nc(NCCc2ccc(OCCCN3CCCCC3)cc2)nc2nc(-c3ccco3)nn12      19.2 nM
13  Nc1nc(NCCc2ccc(OCCCN3CCOCC3)cc2)nc2nc(-c3ccco3)nn12      14.3 nM
14  CN(C)[C@@H]1CCN(CCOc2ccc(CCNc3nc(N)n4nc(-c5ccco5)nc4n3)cc2)C1      35.2 nM
15  CN(CCOc1ccc(CCNc2nc(N)n3nc(-c4ccco4)nc3n2)cc1)Cc1cccnc1      32.3 nM
16  Nc1nc(NCCc2ccc(OCCCc3ccncc3)cc2)nc2nc(-c3ccco3)nn12        11 nM
